Assay: Apparent pKa of lipid nanoparticles (TNS)
Conditions: Table 1; apparent pKa of Fluc mRNA-loaded lipid nanoparticles; TxT/DSPC/chol/PEG-DMG=50/15/35/1.5 (mol%)
testReadout: pKa
Answers are plain numbers.

>>> readoutnumber("CCCCCCCCN(CCCCCCCC)C(=O)CCCC(=O)OCC(COC(=O)CCCC(=O)N(CCCCCCCC)CCCCCCCC)(COC(=O)CCCC(=O)N(CCCCCCCC)CCCCCCCC)NC(=O)CCN1CCCCC1")
6.27
>>> readoutnumber("CCCCCCN(CCCCCC)C(=O)CCCC(=O)OCC(COC(=O)CCCC(=O)N(CCCCCC)CCCCCC)(COC(=O)CCCC(=O)N(CCCCCC)CCCCCC)NC(=O)CCN1CCCCC1")
6.44
>>> readoutnumber("CCCCCN(CCCCC)C(=O)CCCC(=O)OCC(COC(=O)CCCC(=O)N(CCCCC)CCCCC)(COC(=O)CCCC(=O)N(CCCCC)CCCCC)NC(=O)CCN1CCCCC1")
7.94
>>> readoutnumber("CCCCCCCN(CCCCCCC)C(=O)CCCC(=O)OCC(COC(=O)CCCC(=O)N(CCCCCCC)CCCCCCC)(COC(=O)CCCC(=O)N(CCCCCCC)CCCCCCC)NC(=O)CCN1CCCCC1")
4.99

Give a short answer stating reported pKa for CCCCCCC(CCCC)CNC(=O)CCCC(=O)OCC(COC(=O)CCCC(=O)NCC(CCCC)CCCCCC)(COC(=O)CCCC(=O)NCC(CCCC)CCCCCC)NC(=O)CCN1CCCCC1 (centres unmarked) . 4.90

====

For each of the compounds below, state its Pdl.
Assay: Average particle size and polydispersity index of lipid nanoparticles (dynamic light scattering)
Assay type: physicochemical
Conditions: Table 3; Fluc mRNA-loaded lipid nanoparticles; TxT/DSPC/chol/PEG-DMG=50/3/47/1.5 (mol%)

>>> result("CCCCCCCCN(CCCCCCCC)C(=O)CCCC(=O)OCC(COC(=O)CCCC(=O)N(CCCCCCCC)CCCCCCCC)(COC(=O)CCCC(=O)N(CCCCCCCC)CCCCCCCC)NC(=O)CCN1CCCCC1 [TxT-5-5A16]")
0.03
>>> result("CCCCCCCN(CCCCCCC)C(=O)CCCC(=O)OCC(COC(=O)CCCC(=O)N(CCCCCCC)CCCCCCC)(COC(=O)CCCC(=O)N(CCCCCCC)CCCCCCC)NC(=O)CCN1CCCCC1 [TxT-5-5A14]")
0.08

Here is the next item to consider.
Give a short answer stating reported Pdl for CCCCC(CC)CN(CC(CC)CCCC)C(=O)CCCC(=O)OCC(COC(=O)CCCC(=O)N(CC(CC)CCCC)CC(CC)CCCC)(COC(=O)CCCC(=O)N(CC(CC)CCCC)CC(CC)CCCC)NC(=O)CCN1CCCCC1 (stereo not drawn) [TxT-5-5A16b] . 0.22

====

Assay: Apparent pKa of lipid nanoparticles (TNS)
Conditions: Table 3; Fluc mRNA-loaded lipid nanoparticles; TxT/DSPC/chol/PEG-DMG=50/3/47/1.5 (mol%)
Rule: pKa under 6 gives 0 (no), otherwise 1 (yes).

>>> discretelabel("CCCCCCCCCCN(CCCCCCCCCC)C(=O)CCC(=O)OCC(COC(=O)CCC(=O)N(CCCCCCCCCC)CCCCCCCCCC)(COC(=O)CCC(=O)N(CCCCCCCCCC)CCCCCCCCCC)NC(=O)CCN1CCCCC1")
"1 (yes)"
>>> discretelabel("CCCCCCC(CCCCCC)COC(=O)CCCC(=O)OCC(COC(=O)CCCC(=O)OCC(CCCCCC)CCCCCC)(COC(=O)CCCC(=O)OCC(CCCCCC)CCCCCC)NC(=O)CCN1CCCCC1")
"0 (no)"
>>> discretelabel("CCCCCCCCC(CCCCCC)CNC(=O)CCCC(=O)OCC(COC(=O)CCCC(=O)NCC(CCCCCC)CCCCCCCC)(COC(=O)CCCC(=O)NCC(CCCCCC)CCCCCCCC)NC(=O)CCN1CCCCC1 (stereo not shown)")
"0 (no)"
>>> discretelabel("CCCCCCC(CCCC)CNC(=O)CCCC(=O)OCC(COC(=O)CCCC(=O)NCC(CCCC)CCCCCC)(COC(=O)CCCC(=O)NCC(CCCC)CCCCCC)NC(=O)CCN1CCCCC1 (stereo not shown)")
"1 (yes)"
>>> discretelabel("CCCCCCCN(CCCCCCC)C(=O)CCCC(=O)OCC(COC(=O)CCCC(=O)N(CCCCCCC)CCCCCCC)(COC(=O)CCCC(=O)N(CCCCCCC)CCCCCCC)NC(=O)CCN1CCCCC1")
"1 (yes)"

Does pKa meet or surpass 6 for CCCCCCN(CCCCCC)C(=O)CCCC(=O)OCC(COC(=O)CCCC(=O)N(CCCCCC)CCCCCC)(COC(=O)CCCC(=O)N(CCCCCC)CCCCCC)NC(=O)CCN1CCCCC1 ? 1 (yes)

Does pKa meet or surpass 6 for CCCCCCCCN(CCCCCCCC)C(=O)CCCC(=O)OCC(COC(=O)CCCC(=O)N(CCCCCCCC)CCCCCCCC)(COC(=O)CCCC(=O)N(CCCCCCCC)CCCCCCCC)NC(=O)CCN1CCCCC1 ? 1 (yes)
